tested_target: T1, THD1 K402A (UniProt P26039 1-405, K402A)
T1 construct: talin-1 (TLN1) head domain, residues 1-405, K402A; source: E. coli (DE3) Rosetta 2, purified (IMAC, SEC); not shown: His10-SUMO, N-terminal, cleaved
T1 sequence (P26039 1-405 K402A): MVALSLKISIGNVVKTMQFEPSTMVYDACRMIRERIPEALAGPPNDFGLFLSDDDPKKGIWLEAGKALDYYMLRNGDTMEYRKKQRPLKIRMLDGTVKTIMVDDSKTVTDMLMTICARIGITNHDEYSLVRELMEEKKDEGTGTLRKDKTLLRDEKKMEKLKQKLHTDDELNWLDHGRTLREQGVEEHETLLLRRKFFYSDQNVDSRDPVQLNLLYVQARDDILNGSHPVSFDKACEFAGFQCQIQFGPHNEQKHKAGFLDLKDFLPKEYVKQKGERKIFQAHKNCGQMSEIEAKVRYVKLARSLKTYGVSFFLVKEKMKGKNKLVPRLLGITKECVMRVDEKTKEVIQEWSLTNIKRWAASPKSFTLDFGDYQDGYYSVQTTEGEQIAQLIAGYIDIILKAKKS
experiment: MST; apparent; THD1 or THD1 mutants titrated to 488–β3-CT in the presence of 30-40 µM KIND2; MST buffer
assay_setup: both partners purified
No end group written: not given here.
measured_parameter: pKd
Please treat pKd as minus the base-10 logarithm of the molar concentration.

Prompt line: Give the reported value of pKd for this record: {ATTO 488}-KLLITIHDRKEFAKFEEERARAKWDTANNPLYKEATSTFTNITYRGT (peptide, UniProt O54890 741-787, looked up, integrin β3 cytoplasmic tail (β3-CT); source: synthetic peptide (MPIB Core Facility)) [ATTO 488-labeled integrin β3 cytoplasmic tail (488–β3-CT)]
Response line: 3.93

Value source: paper PMC10716038
